- experimentNotes: AP1 Signaling Pathway (AID 357);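 note: ME-180 reporter cells stimulated with EGF at its EC50 level; % is set by controls: 0 for no effect and ±100 for the full control effect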
- details: ME-180 AP-1-bla reporter, EGF-induced, beta-lactamase ratio, 5 h; at 17.2 µM (top of the series) unless noted
Records with an inconclusive call do not appear.
Listing: activity change, negative = inhibition of selected compounds
# value in %; strip the unit string

Entry C=CCOc1ccc(/C(O)=C2/C(=O)C(=O)N(CCCN3CCOCC3)C2c2ccc(OC)cc2)cc1 (stereo unspecified) : reported activity change, negative = inhibition = ?
-6.96

====

Property: activity, negative = inhibition; scope: individual molecules
- experimentNotes: Stat Signaling Pathway (AID 446);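 note: ME-180 cervical cancer cells given 40 pM IL-6 alongside compound; SIE-controlled beta-lactamase reporter measured as 460/530 nm FRET emission ratio; % is set by controls: 0 for no effect and ±100 for the full control effect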
- details: ME-180 (cervical carcinoma) SIE beta-lactamase reporter, IL-6 stimulated, 5 h; at 17.2 µM (top of the series) unless noted
Results filed as inconclusive are left out. Calls of active or inactive are those of the source. The call rests on the fitted dose curve; in most records, active means well fitted curve in either direction with a large enough effect (not every such curve was filed as active); inconclusive means small, poorly fitted or top-dose-only effect, or another doubt; inactive means flat fitted curve, though single readings scatter.

[
  {
    "molecule": "COc1ccccc1NC(=O)CSc1nnc(-c2ccc(NC(C)=O)cc2)n1C",
    "endpointValue": "-0.879% (inactive)"
  },
  {
    "molecule": "COCCNc1oc(-c2ccc(F)cc2)nc1C#N",
    "endpointValue": "-2.97% (inactive)"
  },
  {
    "molecule": "C=CCOc1nc2c(c(=O)n(C)c(=O)n2C)n1Cc1c(Cl)cccc1Cl",
    "endpointValue": "3.61% (inactive)"
  },
  {
    "molecule": "Cc1nnc(N2CCCCC2)c2ccccc12",
    "endpointValue": "-8.53% (inactive)"
  },
  {
    "molecule": "Cc1cccc(C)c1OCC(=O)Nc1cccc(-c2nnc(-c3ccccc3)o2)c1",
    "endpointValue": "-9.86% (inactive)"
  }
]

Please look up its activity, negative = inhibition: O=C1C2ON(c3ccccc3)C(c3cccnc3)C2C(=O)N1c1ccc(Cl)c(Cl)c1 (stereo unspecified)
-9.39% (inactive)

Note, next up: CCN(CC)CCN1C(=O)C(=O)/C(=C(/O)c2ccc(C)cc2)C1c1cccnc1 (stereo unspecified)
7.25% (inactive)

Can you handle COc1ccc(OC)c(NC(=O)CSC2=C(C#N)C(c3ccco3)C3=C(CCCC3=O)N2)c1 (stereo unspecified) next?
-3.42% (inactive)

Now the molecule CC(C(=O)N1CCOCC1)N1C(=O)c2ccccc2C1=O (stereo unspecified)
10.1% (inactive)

src = PubChem BioAssay (NCATS)
